- target: HLA-A*02:06
- assay-summary: IEDB peptide-MHC binding, purified MHC/competitive/radioactivity; filed as Kd, often an IC50 or EC50 that approximates it; bounds were set here for any values at or beyond the usual limits of such assays
- experimental-context: source organism: Dengue virus 1 Nauru/West Pac/1974
readout-name: pKd
Answers are plain numbers, as −log10 of the molar value.

Q) Using the record for HQIFGTAYGV , state its measured pKd.
A) 7.69

###

- target: HLA-B*58:01
- assay-summary: IEDB peptide-MHC binding, purified MHC/direct/fluorescence; filed as Kd, often an IC50 or EC50 that approximates it; bounds were set here for any values at or beyond the usual limits of such assays
- experimental-context: source organism: Camelpox virus M-96
readout-name: Kd (nM)
Numbers only, in nM.

Q) Using the record for ISGSNIVIF , state its measured Kd.
A) 904

###

- target: HLA-A*11:01
- assay-summary: IEDB peptide-MHC binding, purified MHC/competitive/radioactivity; filed as Kd, often an IC50 or EC50 that approximates it; bounds were set here for any values at or beyond the usual limits of such assays
- experimental-context: source organism: Vaccinia virus WR
Kd vs 600 nM: less than gives Condition met; not less than gives Condition not met.

1) FVNEKYCIIK: Condition met
2) LFYTFAISY: Condition not met
3) TFMIITSTK: Condition met

Q) Threshold test, Kd < 600 nM: FLRSIAMLK
A) Condition met

Q) Threshold test, Kd < 600 nM: ELYDTSPTKR
A) Condition not met

Q) Threshold test, Kd < 600 nM: IILARNEEGR
A) Condition not met

Q) Threshold test, Kd < 600 nM: QLLRLMADK
A) Condition met

###

- target: HLA-B*58:01
- assay-summary: IEDB peptide-MHC binding, purified MHC/direct/fluorescence; filed as Kd, often an IC50 or EC50 that approximates it; bounds were set here for any values at or beyond the usual limits of such assays
- experimental-context: source organism: Escherichia coli O157:H7
Assignment: determine reported Kd for the given sequences.

Would you be so kind as to report Kd for each listed record?
1. IRNPPMVVF
2. GMAEDLQSL
3. REWGWRIPF

A)
1. ≥ 20 µM
2. ≥ 20 µM
3. ≥ 20 µM

###

- target: HLA-B*08:01
- assay-summary: IEDB peptide-MHC binding, purified MHC/competitive/radioactivity; filed as Kd, often an IC50 or EC50 that approximates it; bounds were set here for any values at or beyond the usual limits of such assays
- experimental-context: source organism: Dengue virus 4 Philippines/H241/1956
readout-name: pKd
Give bare numbers, as −log10 of the molar value.

1. ALKRRLRTL: 8.72

Now let's try a different one.
Q) Using the record for GIQRTVFFVL , state its measured pKd.
A) 5.18

###

- target: HLA-B*27:05
- assay-summary: IEDB peptide-MHC binding, purified MHC/direct/fluorescence; filed as Kd, often an IC50 or EC50 that approximates it; bounds were set here for any values at or beyond the usual limits of such assays
- experimental-context: source organism: Giardia lamblia ATCC 50803
readout-name: Kd

Q) Using the record for IHKPRPPAT , state its measured Kd.
A) ≥ 20 µM

###

- target: HLA-A*01:01
- assay-summary: IEDB peptide-MHC binding, purified MHC/direct/fluorescence; filed as Kd, often an IC50 or EC50 that approximates it; bounds were set here for any values at or beyond the usual limits of such assays
- experimental-context: source organism: Salmonella enterica subsp. enterica serovar Typhi
readout-name: Kd

Q) Using the record for REILFHNTM , state its measured Kd.
A) ≥ 20 µM

###

- target: HLA-A*01:01
- assay-summary: IEDB peptide-MHC binding, purified MHC/direct/fluorescence; filed as Kd, often an IC50 or EC50 that approximates it; bounds were set here for any values at or beyond the usual limits of such assays
- experimental-context: source organism: Pseudomonas viridiflava
readout-name: Kd

Q) Using the record for DYDQRDYGF , state its measured Kd.
A) ≥ 20 µM

###

- target: HLA-A*68:02
- assay-summary: IEDB peptide-MHC binding, purified MHC/competitive/fluorescence; filed as Kd, often an IC50 or EC50 that approximates it; bounds were set here for any values at or beyond the usual limits of such assays
- experimental-context: source organism: Entamoeba dispar SAW760
pKd: −log10 of the molar value.
readout-name: pKd

Q) Give pKd for KDGTLFYCY tested on HLA-A*68:02.
A) ≤ 4.70

###

- target: HLA-B*39:01
- assay-summary: IEDB peptide-MHC binding, purified MHC/competitive/fluorescence; filed as Kd, often an IC50 or EC50 that approximates it; bounds were set here for any values at or beyond the usual limits of such assays
- experimental-context: source organism: Vibrio parahaemolyticus AQ3810
readout-name: Kd

Q) Using the record for MLTNASGHA , state its measured Kd.
A) ≥ 20 µM

###

- target: HLA-B*45:01
- assay-summary: IEDB peptide-MHC binding, purified MHC/competitive/radioactivity; filed as Kd, often an IC50 or EC50 that approximates it; bounds were set here for any values at or beyond the usual limits of such assays
- experimental-context: source organism: Mammarenavirus machupoense
Assignment: determine reported Kd for the given sequences.
Give bare numbers, in µM.

As a guide, the following entries are already answered.
1. AEWLEMICF: 0.0825
2. KEINLLSQT: 6.69

Now let's try a different one.
Q) Give Kd for SDHLISEML tested on HLA-B*45:01.
A) 17.2

###

- target: HLA-A*31:01
- assay-summary: IEDB peptide-MHC binding, purified MHC/direct/fluorescence; filed as Kd, often an IC50 or EC50 that approximates it; bounds were set here for any values at or beyond the usual limits of such assays
- experimental-context: source organism: Homo sapiens
readout-name: pKd
Give bare numbers, as −log10 of the molar value.

Q) Give pKd for ARLFGIRAK tested on HLA-A*31:01.
A) 5.53

###

- target: HLA-A*11:01
- assay-summary: IEDB peptide-MHC binding, purified MHC/competitive/fluorescence; bounds were set here for any values at or beyond the usual limits of such assays
- experimental-context: source organism: Homo sapiens
readout-name: IC50

Q) Using the record for FPHTELANL , state its measured IC50.
A) ≥ 20 µM

###

- target: HLA-B*08:01
- assay-summary: IEDB peptide-MHC binding, purified MHC/competitive/radioactivity; filed as Kd, often an IC50 or EC50 that approximates it; bounds were set here for any values at or beyond the usual limits of such assays
- experimental-context: source organism: Vaccinia virus WR
readout-name: Kd (nM)
Answers are plain numbers, in nM.

As a guide, the following entries are already answered.
1) FSKKKVCFV: 5.98
2) VMVTSKPLF: 3540

Would you be so kind as to report Kd for each listed record?
1. SKYAGINIL
2. FIRLKLTKL
3. YKKLKFRFI
4. SAKYINSSI
5. RRFRRPMSL
6. SVKINFEFV

A)
[16300, 135, 196, 137, 111, 105]

Would you be so kind as to report Kd for each listed record?
1. SVYIRPTSL
2. HLKHHKQCV

A)
1. 10.7
2. 4.51

###

- target: HLA-A*01:01
- assay-summary: IEDB peptide-MHC binding, purified MHC/competitive/radioactivity; filed as Kd, often an IC50 or EC50 that approximates it; bounds were set here for any values at or beyond the usual limits of such assays
- experimental-context: source organism: Dengue virus 4 Philippines/H241/1956
readout-name: Kd (nM)
Answers are plain numbers, in nM.

As a guide, the following entries are already answered.
1. LTEIASLPT: 1470
2. WMDLLRALI: 9950

Now let's try a different one.
Q) Give Kd for ELEPPFGDSY tested on HLA-A*01:01.
A) 117

###

- target: HLA-A*02:02
- assay-summary: IEDB peptide-MHC binding, purified MHC/competitive/radioactivity; filed as Kd, often an IC50 or EC50 that approximates it; bounds were set here for any values at or beyond the usual limits of such assays
- experimental-context: source organism: Mammarenavirus machupoense
readout-name: Kd (nM)
One number for each entry, in nM.

Q) Using the record for GLSQFTHTV , state its measured Kd.
A) 5.28

###

- target: HLA-B*57:01
- assay-summary: IEDB peptide-MHC binding, purified MHC/direct/fluorescence; filed as Kd, often an IC50 or EC50 that approximates it; bounds were set here for any values at or beyond the usual limits of such assays
- experimental-context: source organism: Mycobacterium tuberculosis variant bovis
readout-name: Kd

Q) Give Kd for HQAIISDVL tested on HLA-B*57:01.
A) ≥ 20 µM

###

- target: HLA-B*15:01
- assay-summary: IEDB peptide-MHC binding, purified MHC/competitive/fluorescence; filed as Kd, often an IC50 or EC50 that approximates it; bounds were set here for any values at or beyond the usual limits of such assays
- experimental-context: source organism: Mycobacterium tuberculosis H37Ra
pKd: −log10 of the molar value.
readout-name: pKd

Q) Using the record for AVYLLDGLR , state its measured pKd.
A) ≤ 4.70
